# Tested on: SK-OV-3
# assay-notes: NCI tumour cell line growth inhibition, 48 h
Activity calls are given as the source filed them. No stated cut-off is given here; in the data, active = GI50 up to about 1.1 µM and inactive = higher.
Return exactly one item of 1.0 = active, 0.0 = inactive

// below: answered compounds
input: Any idea what this test logged for Nc1c2cc3ccc2nc2ccc(cc12)OCCOCCOCCOCCOCCOCCO3 ?
output: 0.0

input: Any idea what this test logged for Oc1ccc(-c2c3ccccc3c(-c3ccc(OCCBr)cc3)c3ccccc23)cc1 ?
output: 0.0

input: Any idea what this test logged for COc1ccc(-c2nnc(CCCCCCCCc3nnc(-c4ccc(OC)cc4)o3)o2)cc1 ?
output: 0.0

Please turn your attention to the following entry.
input: Any idea what this test logged for C/C=C(\CCOS(=O)(=O)c1ccc(C)cc1)[Si](C)(C)C ?
output: 0.0

----------
# System: MOLT-4
# assay-notes: NCI tumour cell line growth inhibition, 48 h
The source made the active and inactive calls. Rule as the data show it: active = GI50 up to about 1.1 µM and inactive = higher.
Return exactly one item of 1 (active), 0 (inactive)

input: Any idea what this test logged for C=CC[C@@]12CCC(=O)C=C1CCCC2=O ?
output: 0

input: Any idea what this test logged for CN1N=C(c2ccccc2)c2cc(Cl)ccc2N=C1N/N=C/c1ccc(N(C)C)cc1 ?
output: 0

More entries:
input: Any idea what this test logged for Cc1ccc(NC(=O)CC2C(=O)Nc3ccccc3[S+]2[O-])c(C)c1 (stereo not given) ?
output: 0

input: Any idea what this test logged for N=S(=O)(c1ccccc1)c1ccccc1[N+](=O)[O-] (stereo not given) ?
output: 0

----------
# System: LXFL 529
# assay-notes: NCI tumour cell line growth inhibition, 48 h
Activity calls are given as the source filed them. Cut-off read from the data, not from the text of the source: active = GI50 up to about 1.1 µM and inactive = higher.
Entries and their measured GI50 follow.

Examples from the recorded data:
input: Data request, read-out GI50, for CSc1nc(SC)c2c(C(N)=S)n[nH]c2n1
output: 29.6 µM (inactive)

input: Data request, read-out GI50, for CCOc1ccc2[nH]c3c(C)c4cc[n+](C)cc4c(C)c3c2c1
output: 0.348 µM (active)

input: Data request, read-out GI50, for CNc1nnnn1C1OC(CO)C(O)C1O (centres undefined)
output: > 100 µM (inactive)

input: Data request, read-out GI50, for CCCN1C(=O)C/C(=C\C(C)=O)Nc2ccccc21
output: > 100 µM (inactive)

More entries:
input: Data request, read-out GI50, for Cc1nc2c(n1Cc1ccc(Cl)cc1)C(=O)c1ccccc1C2=O
output: 5.47 µM (inactive)

input: Data request, read-out GI50, for CC(C)C/C(CC(=O)CCC(=O)Nc1ccccc1[N+](=O)[O-])=N\NC(=O)c1cc2ccccc2cc1O
output: 29.7 µM (inactive)

----------
# Test system: UACC-62
# assay-notes: NCI tumour cell line growth inhibition, 48 h
Active and inactive are the calls of the source. Cut-off read from the data, not from the text of the source: active = GI50 up to about 1.1 µM and inactive = higher.
readout-type: GI50

Examples from the recorded data:
input: Report GI50 for Cc1cc2c(cc1C)[n+]([O-])c(C#N)c(Cl)[n+]2[O-] tested on UACC-62.
output: 11.7 µM (inactive)

input: Report GI50 for O=C(O)CCC(c1ccccc1)(c1ccccc1)c1ccccc1 tested on UACC-62.
output: 27.4 µM (inactive)

input: Report GI50 for C=C(C)[C@@]1(O[Si](C)(C)C)CCCC[C@@H]1CC(Sc1ccccc1)Sc1ccccc1 tested on UACC-62.
output: 13.2 µM (inactive)

input: Report GI50 for Cc1nc2c(n1Cc1ccc(Cl)cc1)C(=O)c1ccccc1C2=O tested on UACC-62.
output: 3.36 µM (inactive)

input: Report GI50 for COc1ccc2c(c1)OCCCN(C)OC2c1ccccc1 (stereo unspecified) tested on UACC-62.
output: > 100 µM (inactive)

input: Report GI50 for CC(=O)c1cc2c(Br)cccc2oc1=O tested on UACC-62.
output: > 100 µM (inactive)

More entries:
input: Report GI50 for [N-]=[N+]=NC1C(Br)C(=O)NC(=O)N1[C@H]1C[C@H](O)[C@@H](CO)O1 (stereo partly specified) tested on UACC-62.
output: > 100 µM (inactive)

input: Report GI50 for N#Cc1ccc(C2Oc3ccc(Cl)cc3C=C2[N+](=O)[O-])cc1 (stereo unspecified) tested on UACC-62.
output: 1.63 µM (inactive)

input: Report GI50 for COC(=O)[C@H]1[C@H]2C[C@@H]3c4[nH]c5cc(OC)ccc5c4CCN3C[C@H]2C[C@@H](OC(=O)c2cc(OC)c(OC)c(OC)c2)[C@@H]1OC tested on UACC-62.
output: 13.3 µM (inactive)

input: Report GI50 for CCOC(=O)N1C=NC23C(c4ccccc4)C(c4ccccc4)C12C(=O)N(C)C(=O)N3C (stereo unspecified) tested on UACC-62.
output: > 100 µM (inactive)

input: Report GI50 for CN1CN(c2ccccc2)C2(CCNCC2)C1=O tested on UACC-62.
output: > 100 µM (inactive)

input: Report GI50 for C=C(C(=O)OC)[C@H]1CC/C(C)=C/CC/C(C)=C/CC[C@@]2(C)O[C@@H]2C1 tested on UACC-62.
output: 11.9 µM (inactive)

Each recorded value in this set is attributed to ChEMBL document CHEMBL1201862.
